Recorded values, source patent US20250313635A1.

Biological target: T1, recombinant mouse αvβ3 integrin extracellular domains (mouse, UniProt P43406 1-988; O54890 1-717, Biotinylated on the Avitag (tag not in the letters); interchain disulfide between the coiled-coils (not in the letters).)
T1 construct: Soluble heterodimer co-expressed in Expi293 cells; also called mαvβ3
T1 sequence (P43406 31-988 limits assumed, form in doubt, chain 1 of 2): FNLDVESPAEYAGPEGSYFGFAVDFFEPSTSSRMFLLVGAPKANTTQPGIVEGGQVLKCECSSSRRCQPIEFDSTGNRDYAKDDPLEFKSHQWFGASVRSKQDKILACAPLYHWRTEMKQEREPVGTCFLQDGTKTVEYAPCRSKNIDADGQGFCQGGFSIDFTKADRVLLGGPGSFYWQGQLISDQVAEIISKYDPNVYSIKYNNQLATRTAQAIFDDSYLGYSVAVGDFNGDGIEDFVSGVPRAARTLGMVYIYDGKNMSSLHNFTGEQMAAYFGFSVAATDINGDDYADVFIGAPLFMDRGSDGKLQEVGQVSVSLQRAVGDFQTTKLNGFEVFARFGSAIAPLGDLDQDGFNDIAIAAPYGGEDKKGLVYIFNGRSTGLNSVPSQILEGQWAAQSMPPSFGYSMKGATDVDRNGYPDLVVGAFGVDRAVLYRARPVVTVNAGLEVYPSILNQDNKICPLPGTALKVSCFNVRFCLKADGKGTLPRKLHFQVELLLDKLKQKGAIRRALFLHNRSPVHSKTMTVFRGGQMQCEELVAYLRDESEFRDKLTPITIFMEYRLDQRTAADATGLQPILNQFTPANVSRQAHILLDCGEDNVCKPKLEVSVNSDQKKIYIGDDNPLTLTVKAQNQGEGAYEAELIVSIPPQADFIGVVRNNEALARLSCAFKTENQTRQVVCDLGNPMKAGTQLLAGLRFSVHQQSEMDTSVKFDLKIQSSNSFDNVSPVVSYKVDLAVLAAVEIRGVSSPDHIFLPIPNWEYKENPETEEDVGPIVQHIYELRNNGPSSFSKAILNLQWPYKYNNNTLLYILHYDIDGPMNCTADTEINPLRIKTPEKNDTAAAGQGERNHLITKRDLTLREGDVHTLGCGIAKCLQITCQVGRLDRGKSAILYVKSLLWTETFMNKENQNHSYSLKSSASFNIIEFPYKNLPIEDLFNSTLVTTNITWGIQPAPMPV
T1 sequence (O54890 26-717 limits assumed, form in doubt, chain 2 of 2): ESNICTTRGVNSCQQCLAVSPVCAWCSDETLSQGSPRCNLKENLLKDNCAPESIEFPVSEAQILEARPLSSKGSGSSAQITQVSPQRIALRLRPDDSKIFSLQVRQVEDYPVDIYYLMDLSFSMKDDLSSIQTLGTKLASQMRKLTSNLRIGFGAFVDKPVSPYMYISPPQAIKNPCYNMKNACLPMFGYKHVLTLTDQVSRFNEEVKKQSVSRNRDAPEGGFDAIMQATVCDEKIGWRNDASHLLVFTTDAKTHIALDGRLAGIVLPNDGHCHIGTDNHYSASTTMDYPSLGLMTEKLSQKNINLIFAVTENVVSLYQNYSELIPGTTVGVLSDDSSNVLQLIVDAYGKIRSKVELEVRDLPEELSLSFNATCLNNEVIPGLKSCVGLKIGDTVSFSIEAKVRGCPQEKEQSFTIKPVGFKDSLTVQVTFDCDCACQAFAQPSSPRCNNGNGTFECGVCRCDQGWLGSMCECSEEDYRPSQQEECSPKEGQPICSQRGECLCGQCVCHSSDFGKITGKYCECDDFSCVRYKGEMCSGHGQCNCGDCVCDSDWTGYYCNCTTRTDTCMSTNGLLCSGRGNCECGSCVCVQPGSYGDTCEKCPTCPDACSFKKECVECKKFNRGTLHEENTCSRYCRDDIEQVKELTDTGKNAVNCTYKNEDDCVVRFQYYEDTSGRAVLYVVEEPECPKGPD
Assay: AlphaLISA blocking of mouse vitronectin binding
For each of the binders below, state its pIC50.
The value called pIC50 is obtained by taking minus log10 of the concentration in mol/L.

Problem: For the binder Ab-31 (antibody, V domains shown) VH: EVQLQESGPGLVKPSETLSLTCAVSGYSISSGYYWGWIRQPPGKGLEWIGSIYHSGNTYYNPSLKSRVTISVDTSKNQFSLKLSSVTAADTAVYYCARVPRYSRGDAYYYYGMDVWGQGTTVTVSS VL: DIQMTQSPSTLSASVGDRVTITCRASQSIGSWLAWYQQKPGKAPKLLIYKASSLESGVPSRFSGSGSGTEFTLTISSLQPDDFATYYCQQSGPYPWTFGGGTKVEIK , what pIC50 is on record?
Solution: 8.49

Problem: For the binder Ab-30 (antibody, V domains shown) VH: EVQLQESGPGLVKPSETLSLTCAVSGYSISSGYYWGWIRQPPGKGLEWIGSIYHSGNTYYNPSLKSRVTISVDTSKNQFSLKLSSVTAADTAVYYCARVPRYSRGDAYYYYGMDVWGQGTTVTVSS VL: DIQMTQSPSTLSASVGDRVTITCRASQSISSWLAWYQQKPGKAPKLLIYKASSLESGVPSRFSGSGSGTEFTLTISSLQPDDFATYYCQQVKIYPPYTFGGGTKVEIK , what pIC50 is on record?
Solution: 8.38

Problem: For the binder Ab-32 (antibody, V domains shown) VH: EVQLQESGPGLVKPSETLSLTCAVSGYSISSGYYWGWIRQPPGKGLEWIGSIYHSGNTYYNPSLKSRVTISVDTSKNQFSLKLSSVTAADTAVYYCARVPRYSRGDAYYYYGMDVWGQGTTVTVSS VL: EIVLTQSPGTLSLSPGERATLSCRASQSVRSSYLAWYQQKPGQAPRLLIYGASSRATGIPDRFSGSGSGTDFTLTISRLEPEDFAVYYCQQAGLVFTFGGGTKVEIK , what pIC50 is on record?
Solution: 8.37

Problem: For the binder Ab-33 (antibody, V domains shown) VH: EVQLVQSGAEVKKPGSSVKVSCKASGGTFSNYAISWVRQAPGQGLEWMGGIIPIFGTANYAQKFQGRVTITADESTSTAYMELSSLRSEDTAVYYCARAPRSARGDMYYYYYGMDVWGQGTTVTVSS VL: DIQMTQSPSTLSASVGDRVTITCRASQSIGSWLAWYQQKPGKAPKLLIYKASSLESGVPSRFSGSGSGTEFTLTISSLQPDDFATYYCQQYGRYPWTFGGGTKVEIK , what pIC50 is on record?
Solution: 8.04

Problem: For the binder Ab-29 (antibody, V domains shown) VH: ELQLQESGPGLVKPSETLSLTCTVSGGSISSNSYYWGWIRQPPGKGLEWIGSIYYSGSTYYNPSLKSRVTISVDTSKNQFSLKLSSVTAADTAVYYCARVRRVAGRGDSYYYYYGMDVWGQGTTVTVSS VL: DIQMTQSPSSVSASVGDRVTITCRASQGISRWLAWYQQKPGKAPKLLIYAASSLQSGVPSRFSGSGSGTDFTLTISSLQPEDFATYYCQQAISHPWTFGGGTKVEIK , what pIC50 is on record?
Solution: 8.47
